Species: Rattus norvegicus
Assay: Open TG-GATES - Regimen: Daily Repeat
Assay type: toxicity, organism-based, Sprague-Dawley
Parameters: regimen Daily Repeat, gender Male, age 6 weeks
Conditions: in vivo, po, 0 mg/kg, […], tissue Blood, route gavage, dose level Control, time 28 day
Ht by entry:
property.name: Ht (%)

compound | result.number
CCN1CCCC1CNC(=O)c1cc(S(N)(=O)=O)ccc1OC (stereo unspecified) [SULPIRIDE] | 46
CC(C)C(=O)Nc1ccc([N+](=O)[O-])c(C(F)(F)F)c1 [FLUTAMIDE] | 43.5
CC(=N)S [THIOACETAMIDE] | 46.8
C[C@]12CCC(=O)C=C1CC[C@@H]1[C@@H]2CC[C@@]2(C)[C@H]1CC[C@]2(C)O [METHYLTESTOSTERONE] | 44.4
C#C[C@]1(O)CC[C@H]2[C@@H]3CCc4cc(O)ccc4[C@H]3CC[C@@]21C [ETHINYL ESTRADIOL] | 42.5
CCC(C)(C)C(=O)O[C@H]1C[C@@H](C)C=C2C=C[C@H](C)[C@H](CC[C@@H]3C[C@@H](O)CC(=O)O3)[C@H]21 [SIMVASTATIN] | 43.6
CN1C(=O)OC(C)(C)C1=O [TRIMETHADIONE] | 44.4
Nc1nc(N)c2nc(-c3ccccc3)c(N)nc2n1 | 46.3
CC(C)(S)[C@@H](N)C(=O)O [PENICILLAMINE] | 45.4
CCc1oc2ccccc2c1C(=O)c1cc(I)c(O)c(I)c1 [BENZIODARONE] | 46.8
CC(=O)Oc1cc(C(C)C)c(OCCN(C)C)cc1C [MOXISYLYTE] | 40.5
Oc1ncnc2[nH]ncc12 [ALLOPURINOL] | 44.2
O=C(N[C@H](CO)[C@H](O)c1ccc([N+](=O)[O-])cc1)C(Cl)Cl [CHLORAMPHENICOL] | 45.1
CCSCC[C@H](N)C(=O)O [ETHIONINE] | 43.5
C[C@](N)(Cc1ccc(O)c(O)c1)C(=O)O [METHYLDOPA] | 43.3
O=C(O)c1cccnc1 [NIACIN] | 42.7

====

Catalogue of LIVER readings, one per entry.
Organism: Rattus norvegicus
Assay: Open TG-GATES - Regimen: Daily Repeat
Type: toxicity, organism-based, Sprague-Dawley
Parameters: regimen Daily Repeat, gender Male, age 6 weeks
Settings: in vivo, po, 0 mg/kg, […], tissue Liver, route gavage, dose level Control, time 7 day
property.name: LIVER (g)

molecule | property.name | result.number
CCSCC[C@H](N)C(=O)O [ETHIONINE] | LIVER | 12.6
O=C(N[C@H](CO)[C@H](O)c1ccc([N+](=O)[O-])cc1)C(Cl)Cl [CHLORAMPHENICOL] | LIVER | 13.8
CC(=O)Oc1cc(C(C)C)c(OCCN(C)C)cc1C [MOXISYLYTE] | LIVER | 11.2
CC(C)C(=O)Nc1ccc([N+](=O)[O-])c(C(F)(F)F)c1 [FLUTAMIDE] | LIVER | 11.7
C[C@](N)(Cc1ccc(O)c(O)c1)C(=O)O [METHYLDOPA] | LIVER | 10.9
CC(=N)S [THIOACETAMIDE] | LIVER | 11.8
CN1C(=O)OC(C)(C)C1=O [TRIMETHADIONE] | LIVER | 12.5
C[C@]12CCC(=O)C=C1CC[C@@H]1[C@@H]2CC[C@@]2(C)[C@H]1CC[C@]2(C)O [METHYLTESTOSTERONE] | LIVER | 12.2
Nc1nc(N)c2nc(-c3ccccc3)c(N)nc2n1 | LIVER | 13.7
CCc1oc2ccccc2c1C(=O)c1cc(I)c(O)c(I)c1 [BENZIODARONE] | LIVER | 12.8

====

Organism: Rattus norvegicus
Test: Open TG-GATES - Regimen: Daily Repeat
Assay type: toxicity, organism-based, Sprague-Dawley
Set-up: regimen Daily Repeat, gender Male, age 6 weeks
Conditions: in vivo, po, 0 mg/kg, […], tissue Kidney, route gavage, dose level Control, time 14 day
Measured KIDNEY_R accompanies every entry in the list below.

molecule | unit.abbreviation | KIDNEY_R
CCC(C)(C)C(=O)O[C@H]1C[C@@H](C)C=C2C=C[C@H](C)[C@H](CC[C@@H]3C[C@@H](O)CC(=O)O3)[C@H]21 [SIMVASTATIN] | g | 1.3
CCN1CCCC1CNC(=O)c1cc(S(N)(=O)=O)ccc1OC (stereo not given) [SULPIRIDE] | g | 1.2
O=C(N[C@H](CO)[C@H](O)c1ccc([N+](=O)[O-])cc1)C(Cl)Cl [CHLORAMPHENICOL] | g | 1.3
C#C[C@]1(O)CC[C@H]2[C@@H]3CCc4cc(O)ccc4[C@H]3CC[C@@]21C [ETHINYL ESTRADIOL] | g | 1.3
CC(=O)Oc1cc(C(C)C)c(OCCN(C)C)cc1C [MOXISYLYTE] | g | 1.3
CCSCC[C@H](N)C(=O)O [ETHIONINE] | g | 1.2
Oc1ncnc2[nH]ncc12 [ALLOPURINOL] | g | 1.2
CC(C)C(=O)Nc1ccc([N+](=O)[O-])c(C(F)(F)F)c1 [FLUTAMIDE] | g | 1.2
C[C@]12CCC(=O)C=C1CC[C@@H]1[C@@H]2CC[C@@]2(C)[C@H]1CC[C@]2(C)O [METHYLTESTOSTERONE] | g | 1.2
CCc1oc2ccccc2c1C(=O)c1cc(I)c(O)c(I)c1 [BENZIODARONE] | g | 1.3
CN1C(=O)OC(C)(C)C1=O [TRIMETHADIONE] | g | 1.2
Nc1nc(N)c2nc(-c3ccccc3)c(N)nc2n1 | g | 1.2
CC(=N)S [THIOACETAMIDE] | g | 1.2
CC(C)(S)[C@@H](N)C(=O)O [PENICILLAMINE] | g | 1.3
C[C@](N)(Cc1ccc(O)c(O)c1)C(=O)O [METHYLDOPA] | g | 1.1

====

Organism: Rattus norvegicus
Assay: Open TG-GATES - Regimen: Daily Repeat
Type: toxicity, organism-based, Sprague-Dawley
Set-up: regimen Daily Repeat, gender Male, age 6 weeks
Settings: in vivo, po, 300 mg/kg, […], tissue Plasma, route gavage, dose level Middle, time 7 day
Item-by-item account of LDH

compound | LDH
CCN1CCCC1CNC(=O)c1cc(S(N)(=O)=O)ccc1OC (centres undefined) [SULPIRIDE] | 54.4 IU/L
O=C(N[C@H](CO)[C@H](O)c1ccc([N+](=O)[O-])cc1)C(Cl)Cl [CHLORAMPHENICOL] | 58.4 IU/L
O=C(O)c1cccnc1 [NIACIN] | 138.4 IU/L
CC(C)(S)[C@@H](N)C(=O)O [PENICILLAMINE] | 67.4 IU/L

====

Species on record: Rattus norvegicus
Assay: Open TG-GATES - Regimen: Daily Repeat
Format: toxicity, organism-based, Sprague-Dawley
Parameters: regimen Daily Repeat, gender Male, age 6 weeks
Details: in vivo, po, 0 mg/kg, […], tissue Plasma, route gavage, dose level Control, time 7 day

compound | TBIL (mg/dL)
CC(C)(S)[C@@H](N)C(=O)O [PENICILLAMINE] | 0.028
O=C(N[C@H](CO)[C@H](O)c1ccc([N+](=O)[O-])cc1)C(Cl)Cl [CHLORAMPHENICOL] | 0.052
O=C(O)c1cccnc1 [NIACIN] | 0
Nc1nc(N)c2nc(-c3ccccc3)c(N)nc2n1 | 0.076
CC(=N)S [THIOACETAMIDE] | 0.3
CCC(C)(C)C(=O)O[C@H]1C[C@@H](C)C=C2C=C[C@H](C)[C@H](CC[C@@H]3C[C@@H](O)CC(=O)O3)[C@H]21 [SIMVASTATIN] | 0.3
Oc1ncnc2[nH]ncc12 [ALLOPURINOL] | 0.3
C[C@](N)(Cc1ccc(O)c(O)c1)C(=O)O [METHYLDOPA] | 0.056
CCSCC[C@H](N)C(=O)O [ETHIONINE] | 0.2
CCN1CCCC1CNC(=O)c1cc(S(N)(=O)=O)ccc1OC (stereo not given) [SULPIRIDE] | 0.052
CC(C)C(=O)Nc1ccc([N+](=O)[O-])c(C(F)(F)F)c1 [FLUTAMIDE] | 0.2
C[C@]12CCC(=O)C=C1CC[C@@H]1[C@@H]2CC[C@@]2(C)[C@H]1CC[C@]2(C)O [METHYLTESTOSTERONE] | 0.028
CCc1oc2ccccc2c1C(=O)c1cc(I)c(O)c(I)c1 [BENZIODARONE] | 0.3
CC(=O)Oc1cc(C(C)C)c(OCCN(C)C)cc1C [MOXISYLYTE] | 0.004
CN1C(=O)OC(C)(C)C1=O [TRIMETHADIONE] | 0.052

All values here come from ChEMBL document CHEMBL3885861.
